Sourced from paper PMC6328172

- tested.on: human 5-HT2C receptor (Homo sapiens, UniProt P28335)
- Construct: expressed in transfected cells; host or cells: HeLa (HeLa-5-HT2C cell line)
- measurement.description: Competition binding to the human 5-HT2C receptor ([3H]mesulergine, HeLa-5-HT2C membranes)
- condition.description: from Ki values, Table 1
hey, just use true (1) if measured Selectivity 5-HT2C/2A (binding, in parentheses) is less than 1, otherwise false (0)

- compound: "COc1ccc2[nH]cc(CCNCc3ccccc3Cl)c2c1"
  cat: "true (1)"
- compound: "Oc1ccccc1CNCCc1c[nH]c2ccccc12"
  cat: "false (0)"
- compound: "c1ccc(CNCCc2c[nH]c3ccccc23)cc1 [Compound 1, N-Benzyl-[2-(1H-indol-3-yl)ethyl]amine]"
  cat: "false (0)"
- compound: "Clc1cccc(CNCCc2c[nH]c3ccccc23)c1"
  cat: "true (1)"

Kindly review the next compound as well.
Exam item: Lab log: compare recorded Selectivity 5-HT2C/2A (binding, in parentheses) with 1; is it strictly lower for COc1cccc(CNCCc2c[nH]c3ccccc23)c1O ?
Marked response: false (0)

###

Here the recorded Selectivity 5-HT2C/2A (functional, in parentheses) is given for each entry.
- tested.on: human 5-HT2C receptor (Homo sapiens, UniProt P28335)
- Construct: expressed in transfected cells; host or cells: HeLa (HeLa-5-HT2C cell line)
- measurement.description: Ca2+ mobilization in HeLa h5-HT2C cells
- Assay type: cell-based
- condition.description: from EC50 values, Table 2
Number only, please.

- compound.string: "Oc1cccc(Br)c1CNCCc1c[nH]c2ccccc12"
  val: 7.41

Selectivity 5-HT2C/2A (functional, in parentheses) recorded for this compound, Brc1cccc(CNCCc2c[nH]c3ccccc23)c1 , is 1.07

According to the records, this compound COc1ccc(F)cc1CNCCc1c[nH]c2ccccc12 displays Selectivity 5-HT2C/2A (functional, in parentheses) of 1.15

Looking up COc1ccc(OC)c(CNCCc2c[nH]c3ccccc23)c1 , I see its Selectivity 5-HT2C/2A (functional, in parentheses) listed as 26.3

The recorded Selectivity 5-HT2C/2A (functional, in parentheses) for Clc1ccccc1CNCCc1c[nH]c2ccccc12 is 2.40

The compound Oc1c(Br)cccc1CNCCc1c[nH]c2ccccc12 showed Selectivity 5-HT2C/2A (functional, in parentheses) equal to 575

// field: Selectivity 5-HT2C/2A (functional, in parentheses); key: Oc1cccc(F)c1CNCCc1c[nH]c2ccccc12 ; value = 2.13

The compound identified as Oc1cccc(CNCCc2c[nH]c3ccccc23)c1 registered its Selectivity 5-HT2C/2A (functional, in parentheses) at 8.32

Lab book: Selectivity 5-HT2C/2A (functional, in parentheses) of Cc1cccc(CNCCc2c[nH]c3ccccc23)c1 noted as 2.09

The value of Selectivity 5-HT2C/2A (functional, in parentheses) measured for the compound CCOc1ccc(CNCCc2c[nH]c3ccccc23)cc1 turned out to be 30.9

Notebook: COc1ccc2[nH]cc(CCNCc3ccc(Br)cc3)c2c1 , Selectivity 5-HT2C/2A (functional, in parentheses) read as 14.1

Value of measured Selectivity 5-HT2C/2A (functional, in parentheses) for the entry COc1ccc(Br)cc1CNCCc1c[nH]c2ccccc12 : 67.6

Value of Selectivity 5-HT2C/2A (functional, in parentheses) reported for the compound Cc1ccccc1CNCCc1c[nH]c2ccccc12 is 14.5

According to the records, this compound COc1ccc(O)c(CNCCc2c[nH]c3ccc(OC)cc23)c1 displays Selectivity 5-HT2C/2A (functional, in parentheses) of 1.1

According to the records, this compound COc1cccc(CNCCc2c[nH]c3ccccc23)c1O displays Selectivity 5-HT2C/2A (functional, in parentheses) of 0.52

Query Cc1ccc(O)c(CNCCc2c[nH]c3ccccc23)c1 yields Selectivity 5-HT2C/2A (functional, in parentheses) of 1.10

###

- tested.on: human 5-HT2C receptor (Homo sapiens)
- Construct: expressed in transfected cells; host or cells: HeLa (HeLa-5-HT2C cell line)
- measurement.description: Ca2+ mobilization in HeLa h5-HT2C cells
- Format: cell-based
- condition.description: HeLa; read-out: 5-HT2C % Emax
property.label: Emax (%)
Report the figure in % without appending any unit label.

- compound: "O=[N+]([O-])c1ccc(CNCCc2c[nH]c3ccccc23)cc1"
  Emax [%]: 92

Next up:
Briefly, Emax measured for COc1ccc(Cl)cc1CNCCc1c[nH]c2ccccc12 : 110

###

- tested.on: human 5-HT2B receptor (Homo sapiens)
- Sequence (P41595 whole entry): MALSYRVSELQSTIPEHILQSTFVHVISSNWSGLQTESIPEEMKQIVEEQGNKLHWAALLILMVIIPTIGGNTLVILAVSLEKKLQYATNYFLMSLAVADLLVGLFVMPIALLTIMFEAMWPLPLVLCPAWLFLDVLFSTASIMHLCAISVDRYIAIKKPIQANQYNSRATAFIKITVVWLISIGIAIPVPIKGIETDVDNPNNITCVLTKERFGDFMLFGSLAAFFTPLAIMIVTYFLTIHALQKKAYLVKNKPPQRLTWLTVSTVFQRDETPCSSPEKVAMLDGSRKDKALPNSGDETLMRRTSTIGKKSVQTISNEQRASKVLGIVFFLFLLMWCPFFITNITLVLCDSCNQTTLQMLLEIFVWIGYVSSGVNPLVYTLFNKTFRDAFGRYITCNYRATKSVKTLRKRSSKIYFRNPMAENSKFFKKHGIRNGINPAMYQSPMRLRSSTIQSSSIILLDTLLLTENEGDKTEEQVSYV
Recorded Ki for the following molecules
Your answer is read as nM, so omit the unit and give the number.

The molecule Fc1cccc(CNCCc2c[nH]c3ccccc23)c1 , tested on human 5-HT2B receptor (Homo sapiens), showed Ki of 126

// returns Ki for Oc1cc(Br)ccc1CNCCc1c[nH]c2ccccc12 with human 5-HT2B receptor (Homo sapiens); value = 110

Lab note: molecule Brc1ccccc1CNCCc1c[nH]c2ccccc12 tested on human 5-HT2B receptor (Homo sapiens); recorded Ki was 74.1

Given the molecule Oc1cccc(F)c1CNCCc1c[nH]c2ccccc12 and test system human 5-HT2B receptor (Homo sapiens), the measured Ki is 115

###

- tested.on: human 5-HT2A receptor (Homo sapiens, UniProt P28223)
- Construct: expressed in transfected cells; host or cells: CHO (CHO-5-HT2A cell line)
- Sequence (P28223 whole entry): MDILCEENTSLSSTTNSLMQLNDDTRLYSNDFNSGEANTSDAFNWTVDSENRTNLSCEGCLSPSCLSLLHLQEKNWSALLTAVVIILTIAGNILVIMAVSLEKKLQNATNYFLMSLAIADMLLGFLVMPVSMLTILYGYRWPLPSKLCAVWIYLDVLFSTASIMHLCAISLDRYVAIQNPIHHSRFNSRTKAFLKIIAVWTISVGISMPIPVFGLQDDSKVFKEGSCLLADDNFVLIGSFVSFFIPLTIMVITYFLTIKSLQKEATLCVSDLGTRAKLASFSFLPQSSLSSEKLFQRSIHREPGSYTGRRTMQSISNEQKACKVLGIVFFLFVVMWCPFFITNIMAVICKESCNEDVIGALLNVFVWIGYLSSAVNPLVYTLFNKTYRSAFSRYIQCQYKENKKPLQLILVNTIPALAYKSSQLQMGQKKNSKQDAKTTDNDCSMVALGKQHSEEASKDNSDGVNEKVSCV
- measurement.description: Competition binding to the human 5-HT2A receptor ([3H]ketanserin, CHO-5-HT2A membranes)
- condition.description: from Ki values, Table 1
Property: Selectivity 5-HT2A/2C (binding); scope: individual compounds
Reply briefly: the number, and no unit.

Known results for compounds:
- compound.string: "COc1ccc2[nH]cc(CCNCc3ccc(Br)cc3)c2c1"
  Selectivity 5-HT2A/2C (binding): 0.98
- compound.string: "COc1ccc(CNCCc2c[nH]c3ccccc23)c(OC)c1"
  Selectivity 5-HT2A/2C (binding): 0.41
- compound.string: "COc1ccc(OC)c(CNCCc2c[nH]c3ccccc23)c1"
  Selectivity 5-HT2A/2C (binding): 0.26
- compound.string: "COc1ccc(F)cc1CNCCc1c[nH]c2ccccc12"
  Selectivity 5-HT2A/2C (binding): 0.42
- compound.string: "Clc1ccccc1CNCCc1c[nH]c2ccccc12"
  Selectivity 5-HT2A/2C (binding): 2.04

For this compound ( Oc1ccccc1CNCCc1c[nH]c2ccccc12 ), measured Selectivity 5-HT2A/2C (binding) is 0.73

###

The entries below come with measured log10 Ki values attached.
- tested.on: human 5-HT2C receptor (Homo sapiens)
- Construct: expressed in transfected cells; host or cells: HeLa (HeLa-5-HT2C cell line)
- measurement.description: Competition binding to the human 5-HT2C receptor ([3H]mesulergine, HeLa-5-HT2C membranes)
- condition.description: human receptor, [3H]mesulergine displacement; no unit in the table, nM; read-out: 5-HT2C Ki (in parentheses) (converted)
Hey, these are logged values: log10 of Ki, nM being the unit before logging.

See these solved cases before continuing.
- compound.string: "Oc1cccc(CNCCc2c[nH]c3ccccc23)c1"
  log10 Ki: 1.41
- compound.string: "COc1ccc2[nH]cc(CCNCc3ccccc3OC)c2c1"
  log10 Ki: 1.84
- compound.string: "COc1ccc2[nH]cc(CCNCc3ccc(Br)cc3)c2c1"
  log10 Ki: 2.58
- compound.string: "Oc1cccc(F)c1CNCCc1c[nH]c2ccccc12"
  log10 Ki: 2.19

For Cc1ccc(CNCCc2c[nH]c3ccccc23)cc1 the molecule record lists log10 Ki as 2.52

###

- tested.on: human 5-HT2C receptor (Homo sapiens)
- Construct: expressed in transfected cells; host or cells: HeLa (HeLa-5-HT2C cell line)
- Sequence (P28335 33-458): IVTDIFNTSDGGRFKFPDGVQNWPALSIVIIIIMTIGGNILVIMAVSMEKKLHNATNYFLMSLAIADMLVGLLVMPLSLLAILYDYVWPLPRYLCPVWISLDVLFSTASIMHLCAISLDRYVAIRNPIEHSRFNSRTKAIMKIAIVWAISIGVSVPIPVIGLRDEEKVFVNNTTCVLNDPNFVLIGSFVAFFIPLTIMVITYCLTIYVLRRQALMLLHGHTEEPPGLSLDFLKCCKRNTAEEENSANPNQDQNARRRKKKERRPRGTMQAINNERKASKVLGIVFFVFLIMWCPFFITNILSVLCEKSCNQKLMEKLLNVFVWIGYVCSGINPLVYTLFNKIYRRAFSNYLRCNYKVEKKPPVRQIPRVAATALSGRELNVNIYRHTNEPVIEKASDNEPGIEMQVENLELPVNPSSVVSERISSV
- measurement.description: Ca2+ mobilization in HeLa h5-HT2C cells
- Type: cell-based
- condition.description: HeLa; read-out: 5-HT2C % Emax
property.label: Emax (%)
# number only, unit % dropped from output

- compound: "COc1ccccc1CNCCc1c[nH]c2ccccc12"
  Emax [%]: 94.2

Emax for Brc1ccc(CNCCc2c[nH]c3ccccc23)cc1 is 110

Entry Oc1cccc(Br)c1CNCCc1c[nH]c2ccccc12 , Emax reported as 104

Entry under test: Fc1cccc(CNCCc2c[nH]c3ccccc23)c1 . Its Emax was 112

Emax in this record for c1ccc(CNCCc2c[nH]c3ccccc23)cc1 [Compound 1, N-Benzyl-[2-(1H-indol-3-yl)ethyl]amine] : 121

Record COc1ccc(Br)cc1CNCCc1c[nH]c2ccccc12 . Reported Emax: 111

Briefly, Emax measured for Cc1ccc(CNCCc2c[nH]c3ccccc23)cc1 : 100

// recorded Emax for Brc1cccc(CNCCc2c[nH]c3ccccc23)c1 : 107

Entry CCOc1ccc(CNCCc2c[nH]c3ccccc23)cc1 — recorded Emax = 93.2

Consider COc1ccc(F)cc1CNCCc1c[nH]c2ccccc12 . Its measured Emax is 110

get_value(item= COc1ccc(CNCCc2c[nH]c3ccccc23)cc1 , readout=Emax) returns 91.4
